Data origin, for the record: the supplement of paper PMC11780869

test system: Bacillus subtilis; assay: cleaved RNA product abundance (RNA/gDNA barcode ratio) relative to median wild-type variant (ratio to wild type); higher = more accumulation of the downstream cleavage product; details: experiment (reporter, strain, medium): exp 2b: truncated aprE reporter, strain BJT200; cleavage site: cggR-gapA (positions -7 to +36 mutated)
readout_kind: cleaved RNA product abundance
Answers are plain numbers.

ACAGACGAAGGAGCCGCAAGGAAGTTATTAAGGGATGAATAATACCTCAATATAAATATCTCTCACTTATTTAAA    0.0986
ACAGACGAAGGAGCCGCAAAGAAGTTATTAAGGGATGAATAATCCCTCAAAATACATATCTCTCACTTATTTAAA    0.202
ACAGACGAAGGAGCCGCAAAGAAGTTATTAAGGGATGAATGATCCCTCAAAATAAATATCTCTCACTTATTTAAA    0.14

Return reported cleaved RNA product abundance values for all items listed beneath this line.
1. ACAGACGAAGGAGCCGCAAAGAAGTTATTAAGGGATGCATAATACCTCAATATAAATATCTCTCACTTATTTAAA
2. ACAGACGAAGGAGCCGCAAAGAAGTTATAAAGGAATGAATAATCCCTCAATATAAATATCTCTCACTTATTTAAA
3. ACAGACGAAGGAGCCGCAAAGAAGTTATTAAGGGATTAATAATCTCTCAATATAAATATCTCTCACTTATTTAAA
4. ACAGACGAAGGAGCCGCAAAGAATTTATTAAGGGATGAATAATACCTCAATATAAATATCTCTCACTTATTTAAA

Reply:
1: 0.129; 2: 0.0926; 3: 0.716; 4: 0.105

* * *

tested on: Bacillus subtilis; assay: cleaved RNA product abundance (RNA/gDNA barcode ratio) relative to median wild-type variant (ratio to wild type); higher = more accumulation of the downstream cleavage product; settings: experiment (reporter, strain, medium): exp 4a: truncated aprE reporter, strain BJT201 with 2% xylose (RNase J1 expressed); cleavage site: cggR-gapA (positions -7 to +36 mutated)
Answer each item with its documented cleaved RNA product abundance.
Answers are plain numbers.

ACAGACGAAGGAGCCGCAAATAAGTTATTAAGGGATGAATATTCCCTCAATATAAATATCTCTCACTTATTTAAA    1.07

Please supply cleaved RNA product abundance for each of the following items, keeping them in order.
1. ACAGACGAAGGAGCCGCAAAGAAGTTATCAACGGATGAATAATCCCTCAATATAAATATCTCTCACTTATTTAAA
2. ACAGACGAAGGAGCCGCAAAGAAGTTATTAAGCGATGAATAATCCCTCAAGATAAATATCTCTCACTTATTTAAA
3. ACAGACGAAGGAGCCGCAAAGAAGTTATTAAGGGATGAATAATCCCTCAATATCAATATCTCTCACTTATTTAAA

Reply:
1. 0.15
2. 0.0789
3. 0.103

* * *

tested on: Bacillus subtilis; assay: cleaved RNA product abundance (RNA/gDNA barcode ratio) relative to median wild-type variant (ratio to wild type); higher = more accumulation of the downstream cleavage product; conditions: experiment (reporter, strain, medium): exp 4a: truncated aprE reporter, strain BJT201 with 2% xylose (RNase J1 expressed); cleavage site: cggR-gapA (positions -7 to +36 mutated)
I'd appreciate it if you could supply cleaved RNA product abundance values for the items below.
One number for each entry.

# annotated cases, reported cleaved RNA product abundance shown
ACAGACGAAGGAGCCGCAAAGAAGTAATTAAAGGATGAATAATCCCTCAATATAAATATCTCTCACTTATTTAAA    0.105
ACAGACGAAGGAGCCGCAAAGAAGTTATTAAGGGTTGAATAATCCCTCAATTTAAATATCTCTCACTTATTTAAA    0.132
ACAGACGAAGGAGCCGCAAAGAATTTATTAAGGGATGAATAATCCATCAATATAAATATCTCTCACTTATTTAAA    0.269

Please examine the following record next.
Query: Quick one: cleaved RNA product abundance of `ACAGACGAAGGAGCCGCAAAGAAGTTATCAAGGGATGAATAATCCCTCAAAATAAATATCTCTCACTTATTTAAA` ?
Reply: 0.289
